Molecular target: wild type c-kit (Homo sapiens (Human), UniProt P10721)
Sequence (P10721 26-976): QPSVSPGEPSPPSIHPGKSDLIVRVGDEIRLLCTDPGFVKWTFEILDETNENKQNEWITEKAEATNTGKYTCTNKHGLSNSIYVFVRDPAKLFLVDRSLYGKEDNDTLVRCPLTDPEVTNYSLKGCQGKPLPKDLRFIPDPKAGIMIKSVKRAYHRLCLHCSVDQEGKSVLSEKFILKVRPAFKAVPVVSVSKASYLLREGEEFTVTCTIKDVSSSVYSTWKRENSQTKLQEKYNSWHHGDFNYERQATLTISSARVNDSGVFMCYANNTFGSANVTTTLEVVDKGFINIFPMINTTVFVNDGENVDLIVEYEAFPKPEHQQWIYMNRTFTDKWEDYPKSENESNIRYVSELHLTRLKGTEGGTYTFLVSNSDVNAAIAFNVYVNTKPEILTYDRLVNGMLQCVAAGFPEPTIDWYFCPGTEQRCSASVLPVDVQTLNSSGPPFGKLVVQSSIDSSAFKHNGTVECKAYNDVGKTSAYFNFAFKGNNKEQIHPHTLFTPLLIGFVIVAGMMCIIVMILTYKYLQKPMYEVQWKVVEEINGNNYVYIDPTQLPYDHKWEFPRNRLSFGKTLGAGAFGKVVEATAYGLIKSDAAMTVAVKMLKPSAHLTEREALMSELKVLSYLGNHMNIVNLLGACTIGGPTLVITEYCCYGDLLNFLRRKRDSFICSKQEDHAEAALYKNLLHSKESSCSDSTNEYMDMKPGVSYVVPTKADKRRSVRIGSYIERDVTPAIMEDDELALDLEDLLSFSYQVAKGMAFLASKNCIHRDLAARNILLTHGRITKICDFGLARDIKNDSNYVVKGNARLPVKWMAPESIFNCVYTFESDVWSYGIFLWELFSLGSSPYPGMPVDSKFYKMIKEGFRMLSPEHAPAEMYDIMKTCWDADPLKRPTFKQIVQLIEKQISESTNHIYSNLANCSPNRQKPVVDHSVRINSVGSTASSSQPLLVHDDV
Assay: PathScan phospho c-kit (Tyr719) sandwich ELISA in SCF-stimulated M-07e cells (pKIT assay)
Type: cell-based
Conditions: ELISA assay (values not marked *)
MEASURE_NAME: IC50 (nM)
Give bare numbers, in nM.

Reference set (3 entries):
Problem: Lab note: need IC50 for COC(=O)N1CC(n2nnc(-c3ccc(C)c(NC(=O)c4cnn5ccc(N6CC7(COC7)C6)cc45)c3)n2)C1 on wild type c-kit (Homo sapiens (Human), UniProt P10721), anyone have it?
Result: 47.8

Problem: Provide the documented IC50 with wild type c-kit (Homo sapiens (Human), UniProt P10721) as the system for Cn1nnc(-c2ccc(Cl)c(NC(=O)c3cnn4ccc(-c5cnn(CCO)c5)cc34)c2)n1
Result: 5.2

Problem: I'm curious: which IC50 was measured for Cc1ccc(-c2nnn([C@H]3C[C@@H](C(F)(F)F)C3)n2)cc1NC(=O)c1cnn2ccc(N3CCC(C)(O)CC3)cc12 tested on wild type c-kit (Homo sapiens (Human), UniProt P10721)?
Result: 0.6

I need IC50 for every entry listed below, if you could help.
1. COC(=O)N1CC(c2cnn(-c3ccc(C)c(NC(=O)c4cnn5ccc(N(C)CCO)cc45)c3)n2)C1
2. COC[C@@H](O)Cn1cc(-c2ccn3ncc(C(=O)Nc4cc(-c5nnn(C6CC6)n5)ccc4Cl)c3c2)c(C)n1
3. Cc1nn(CC2(O)CCOCC2)cc1-c1ccn2ncc(C(=O)Nc3cc(-n4nnc([C@H]5C[C@@H]5F)n4)ccc3Cl)c2c1 (single isomer, unassigned)

Result:
21.9
0.2
0.9
